System: AI-sensitive GPCRs
Test: Competition for [3H]WIN55212-2 binding in HEK293 cell membranes
Set-up: species or system human
Conditions: read-out: KiHigh; high affinity site of biphasic competition curve
endpoint: Ki (nM)
The reply should contain only the number, in nM.

Q: Tell me measured Ki for Cc1c(C(=O)c2cccc3ccccc23)c2cccc3c2n1[C@@H](CN1CCOCC1)CO3 [WIN55212-2, reference compound] please.
Ans: 0.043

====

Tested on: AI-sensitive GPCRs
Experiment: Competition for [3H]WIN55212-2 binding in HEK293 cell membranes
Design: species or system human
endpoint: competition for [3H]WIN55212-2 binding (in words)

>>> value_measured("Cc1ccc(C(=O)c2c(C)n(CCN3CCOCC3)c3cc(Cl)cc(Cl)c23)c2ccccc12")
"inactive"
>>> value_measured("C1=C(CCN2CCOCC2)c2ccccc2/C1=C\\c1cccc2ccccc12 [Compound 31, reference compound]")
"compete"
>>> value_measured("CCn1c(C)c(C(=O)c2ccc(OC)cc2)c2ccccc21")
"inactive"
>>> value_measured("CC1=C(CCN2CCOCC2)c2ccccc2/C1=C\\c1cccc2ccccc12 [Compound 33, reference compound]")
"compete"
